Where these numbers come from: patent US20220125891A1

System Name: T1, Reg1_301-599 (human Regnase-1 amino acids 301 to 599, FLAG tag on the N-terminal side, BirA recognition … (human))
T1 sequence (Q5D1E8 301-599, looked up): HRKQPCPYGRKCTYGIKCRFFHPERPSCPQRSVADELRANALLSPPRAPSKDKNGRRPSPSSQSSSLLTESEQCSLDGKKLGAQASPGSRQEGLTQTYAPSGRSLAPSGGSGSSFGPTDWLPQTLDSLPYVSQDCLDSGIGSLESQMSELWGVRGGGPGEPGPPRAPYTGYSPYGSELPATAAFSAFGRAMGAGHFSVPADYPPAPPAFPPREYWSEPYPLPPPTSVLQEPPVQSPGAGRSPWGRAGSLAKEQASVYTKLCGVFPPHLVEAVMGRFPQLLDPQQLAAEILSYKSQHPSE
Assay Remarks: cell-based or functional assay
Positions of bridges follow the written chain, without caps; N, C: chain ends. Non-standard residues stand in square brackets, D forms with d. No end group written: not given here. NMeA = CN[C@@H](C)C(=O)O; dNMeA = CN[C@H](C)C(=O)O
Value Kind: IC50, phosphorylation by IKKβ
Kindly format the answer as number then unit.

What value of IC50, phosphorylation by IKKβ has been recorded for this entry: [dNMeA]PNSSWFKIWD (lactam N-11) [PP6] 17.5 µM

// repeat for [NMeA]RYAVYQWIYPD (lactam N-12) [PP12] and report 20.7 µM

Try the binder [dNMeA]TYGHSSWYKIWD (lactam N-13) [PP9] 6.2 µM

Field entry: [NMeA]NSWYRIWGLD (lactam N-11) [PP22] 31 µM
